The values you see were collected from PubChem BioAssay (NCI).

Assay: NCI Yeast Anticancer Drug Screen. Data for the sgs1 mgt1 strain (AID 161);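 also: 0% = growth of cultures given vehicle only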
Conditions: S. cerevisiae sgs1 mgt1 strain, at 5.0 µM (retest, dose inferred, filed as 0.5), hits give high values
Compounds without any hit were thinned out: in the full panel of roughly 79,000, 15% have a hit.
Quantity measured: growth inhibition (%)
Lab book: enter the figure in %, no units written.

Completed entries (count: 6):
> print(dat)
                                   compound  unit.of.measurement  result
1  COC1CCC(O)C(/C=C/[N+](=O)[O-])C1 (stereo not drawn)                    %      67
2  CCOC(=O)C1=C(C)NC(C)=C(C(=O)OCCNC(=O)c2ccc(N=[N+]=[N-])cc2)C1c1ccccc1C(F)(F)F (stereo not drawn)                    %       5
3  Cc1cc(NCCCCCCCCNc2cc(C)nc3cc(N)ccc23)c2ccc(N)cc2n1                    %       8
4  Cc1cc(S(=O)(=O)Nc2nnc3cnc4ccccc4n23)c(S)cc1Cl                    %      -1
5             Cc1cccc(/C=N/NC(=S)N2CCCC2)n1                    %      25
6  CC(NCCN(C)C)C1CCC2C3CCc4cc(O)ccc4C3CCC12C (stereo not drawn)                    %       7

Q: // Input: CCOC(=O)c1[nH]cc(C)c1-c1cccn1-c1ccc(Cl)cc1[N+](=O)[O-] . Output its growth inhibition only.
Ans: 8

Q: // Input: CCN(CC)Cc1cc(Nc2c3ccccc3nc3c2[nH]c2ccccc23)cc(CN(CC)CC)c1O . Output its growth inhibition only.
Ans: -5

Q: // Input: CN1C(=O)c2ccc3ccccc3c2C1=O . Output its growth inhibition only.
Ans: 27

Q: // Input: C[C@]12CC[C@H](O)CC1=CC[C@@H]1C2CC[C@]2(C)C(=O)NC(=O)CC12 (stereo partly drawn) . Output its growth inhibition only.
Ans: 33

Q: // Input: COc1cc(/C=C2\CCC/C(=C\c3ccc(O)c(OC)c3)C2=O)ccc1O . Output its growth inhibition only.
Ans: 8

Q: // Input: CNC(=O)OCc1c(COC(=O)NC)c(-c2ccc(Cl)c(Cl)c2)n2c1SCC2 . Output its growth inhibition only.
Ans: -5

Q: // Input: CC(C)CCCC(C)C1CCC2C3CCC4=CC(=O)/C(=C\O)CC4(C)C3CCC12C (stereo not drawn) . Output its growth inhibition only.
Ans: 7

Q: // Input: CCCC(O)C1CC(C(C)C)CCC1C (stereo not drawn) . Output its growth inhibition only.
Ans: -11

Q: // Input: Cc1ccc(NC(c2ccccc2)c2ccc3cccnc3c2O)cc1 (stereo not drawn) . Output its growth inhibition only.
Ans: 9

Q: // Input: CCO/C(C)=C(/C#N)C(N)=S . Output its growth inhibition only.
Ans: -9

----------
# Lookup of reported growth inhibition keyed by entry
Experiment: NCI Yeast Anticancer Drug Screen. Data for the mec2-1 strain (AID 157)
Conditions: S. cerevisiae mec2-1 strain, at 11.0 µM, hits give high values
This is part of a sample that, as a whole, favours compounds with a hit. Of some 79,000 tested, about 15% had one in any assay.
Lab book: enter the figure in %, no units written.

Completed entries (count: 3):
> print(dat)
                                   compound  quantity.measured  unit.of.measurement  result
1  CCCC/C([O-])=C1/C(=O)N(c2ccccc2)N=C1C.CCCC/C([O-])=C1/C(=O)N(c2ccccc2)N=C1C.[Cu+2]  growth inhibition                    %      -6
2  O=C(NCCCNCCN1C(=O)c2cccc3cc([N+](=O)[O-])cc(c23)C1=O)c1cc(-c2ccccc2)nc2ccccc12  growth inhibition                    %       0
3  O=C1CSC(c2cccc(Cl)c2)N1c1ccc(-c2ccc(-n3c(-c4ccccc4)nc4ccccc4c3=O)cc2)cc1 (centres undefined)  growth inhibition                    %       6

Q: // Input: COC(=O)Nc1cn2ccc(C(Cl)=C(Cl)Cl)cc2n1 . Output its growth inhibition only.
Ans: 5
